Reference source for all entries: patent US11713338B2

biological target: integrin α4β7 (RPMI8866 human cells adhering to MAdCAM-1) (Homo sapiens, UniProt P13612+P26010); construct: RMP18866 cells, which express integrin α4β7; host or cells: RPMI8866; assay: Integrin α4β7-MAdCAM cell adhesion assay (RPMI8866 cells); type: cell-based; details: RPMI8866 cells adhering to MAdCAM; read-out: RPMI8866 Adhesion α4β7/MAdCAM IC50
Sequence (P13612 34-1032): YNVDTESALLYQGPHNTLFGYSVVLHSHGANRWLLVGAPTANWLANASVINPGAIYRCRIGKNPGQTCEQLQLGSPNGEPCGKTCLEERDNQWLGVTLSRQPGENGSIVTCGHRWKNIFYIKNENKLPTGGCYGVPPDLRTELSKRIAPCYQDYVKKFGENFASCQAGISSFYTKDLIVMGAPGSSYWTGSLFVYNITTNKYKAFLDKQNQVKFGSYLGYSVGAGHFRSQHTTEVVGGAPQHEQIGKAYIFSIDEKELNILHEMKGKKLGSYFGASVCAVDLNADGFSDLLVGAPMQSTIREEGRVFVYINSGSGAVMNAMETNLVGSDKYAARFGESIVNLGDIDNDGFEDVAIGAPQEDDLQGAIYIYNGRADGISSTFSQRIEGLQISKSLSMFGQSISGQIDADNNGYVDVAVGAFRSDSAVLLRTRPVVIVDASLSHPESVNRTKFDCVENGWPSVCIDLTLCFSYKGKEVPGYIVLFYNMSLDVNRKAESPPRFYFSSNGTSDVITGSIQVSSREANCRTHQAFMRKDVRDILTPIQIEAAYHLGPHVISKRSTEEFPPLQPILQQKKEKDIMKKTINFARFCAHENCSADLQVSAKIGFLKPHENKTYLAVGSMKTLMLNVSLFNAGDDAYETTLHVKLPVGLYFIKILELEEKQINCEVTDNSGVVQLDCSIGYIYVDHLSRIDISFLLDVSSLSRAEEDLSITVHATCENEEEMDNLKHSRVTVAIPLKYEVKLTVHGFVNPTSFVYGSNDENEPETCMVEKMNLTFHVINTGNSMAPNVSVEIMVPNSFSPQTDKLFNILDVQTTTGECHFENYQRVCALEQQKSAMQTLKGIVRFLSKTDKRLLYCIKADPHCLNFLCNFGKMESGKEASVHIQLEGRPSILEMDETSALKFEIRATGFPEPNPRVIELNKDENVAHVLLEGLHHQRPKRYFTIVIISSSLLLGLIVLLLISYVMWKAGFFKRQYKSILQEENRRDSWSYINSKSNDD
Sequence (P26010 20-798): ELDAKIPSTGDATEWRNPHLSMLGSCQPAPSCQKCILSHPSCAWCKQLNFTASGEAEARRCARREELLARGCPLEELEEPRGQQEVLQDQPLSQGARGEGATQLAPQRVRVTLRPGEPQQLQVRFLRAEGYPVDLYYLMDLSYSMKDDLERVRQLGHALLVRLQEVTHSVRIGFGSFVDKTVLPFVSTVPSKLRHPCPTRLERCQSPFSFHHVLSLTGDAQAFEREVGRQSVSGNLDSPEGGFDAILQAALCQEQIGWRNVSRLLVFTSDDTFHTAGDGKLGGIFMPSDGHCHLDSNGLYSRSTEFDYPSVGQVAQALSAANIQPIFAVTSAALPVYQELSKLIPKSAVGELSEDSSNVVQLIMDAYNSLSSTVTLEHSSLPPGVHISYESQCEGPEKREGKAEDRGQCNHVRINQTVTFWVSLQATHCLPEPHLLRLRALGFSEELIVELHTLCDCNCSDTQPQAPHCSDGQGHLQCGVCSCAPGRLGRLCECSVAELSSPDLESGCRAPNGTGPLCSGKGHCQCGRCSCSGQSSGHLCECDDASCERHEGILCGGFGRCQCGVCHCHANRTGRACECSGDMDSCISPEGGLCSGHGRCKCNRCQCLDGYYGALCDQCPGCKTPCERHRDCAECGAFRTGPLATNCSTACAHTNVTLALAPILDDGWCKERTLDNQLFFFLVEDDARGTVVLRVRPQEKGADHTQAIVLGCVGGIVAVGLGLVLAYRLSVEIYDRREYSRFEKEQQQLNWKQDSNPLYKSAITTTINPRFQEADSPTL
measurement type: IC50 (nM)
Give the value in nM but do not write nM after it.

CC(C)C[C@@H]1NC(=O)c2ccc(-c3ccc(N4CCN(C(=O)c5cccc(-c6ccccc6C(=O)N6CCN(c7ccc(-c8ccc9cc8CNC(=O)[C@@H]8CCCN8[C@H](C(=O)NC(C)(C)C)[C@H](C)NC(=O)[C@H]([C@@H](C)O)NC(=O)[C@H](CC(=O)O)NC(=O)[C@H](CC(C)C)NC9=O)cc7)CC6)c5)CC4)cc3)c(c2)CNC(=O)[C@@H]2CCCN2[C@H](C(=O)NC(C)(C)C)[C@H](C)NC(=O)[C@H]([C@@H](C)O)NC(=O)[C@H](CC(=O)O)NC1=O ... 34

Let us move to another entry and its IC50.
// sample CC(C)C[C@@H]1NC(=O)c2ccc(-c3ccc(N4CCN(C(=O)CCCCC(=O)N5CCN(c6ccc(-c7ccc8cc7CNC(=O)[C@@H]7CCCN7[C@H](C(=O)NC(C)(C)C)[C@H](C)NC(=O)[C@H]([C@@H](C)O)NC(=O)[C@H](CC(=O)O)NC(=O)[C@H](CC(C)C)NC8=O)cc6)CC5)CC4)cc3)c(c2)CNC(=O)[C@@H]2CCCN2[C@H](C(=O)NC(C)(C)C)[C@H](C)NC(=O)[C@H]([C@@H](C)O)NC(=O)[C@H](CC(=O)O)NC1=O , its IC50 was 42
